Parameter MRT: see the listing below.
# experimental.details: Mean residence time in Sprague-Dawley rat at 10 mg/kg, po
# Assay type: ADME, organism-based
# Parameters: dose 10 mg/kg, route oral
# test.context: in vivo

| compound | measurement |
| --- | --- |
| Cc1cnn(CC/C=C/c2ccc(OCc3ccc(Br)cc3)cc2)c1 | 7.17 h |

Fill in the blank: the reported MRT of `C(=C\c1ccc(OCc2ccccc2)cc1)/CCSc1nc2ccccc2s1` is ____. 6.02 h

// same read-out, input: `C(=C\c1ccc(OCc2ccccc2)cc1)/CCn1cnc2ccccc21` 3.22 h

// same read-out, input: c1ccc(COc2ccc(C(Nc3nc4ccccc4s3)C3CC3)cc2)cc1 (centres undefined) 7.9 h

* * *

# Tested on: Klebsiella pneumoniae
# experimental.details: Antibacterial activity against Klebsiella pneumoniae ATCC 27736 assessed as growth inhibition after 24 hrs by microbroth dilution method
# Format: functional
# test.context: ATCC 27736, 24 h
readout.label: MIC

// below: answered compounds
| compound | MIC |
| --- | --- |
| c1ccc2sc(SC(c3ccc(OCc4ccc(OCCN5CCCCC5)cc4)cc3)C3CC3)nc2c1 (centres undefined) | > 50 µg/mL |
| c1ccc2oc(NC(c3ccc(OCc4ccc(OCCN5CCCCC5)cc4)cc3)C3CC3)nc2c1 (centres undefined) | > 50 µg/mL |
| CC1(C)S[C@@H]2[C@H](NC(=O)[C@H](N)c3ccccc3)C(=O)N2[C@H]1C(=O)O | 50 µg/mL |

Fill in the blank: the reported MIC of COc1ccc(COc2ccc(C(C3CC3)n3ccnc3)cc2)cc1 (centres undefined) is ____. 25 µg/mL

* * *

# experimental.details: Cytotoxicity against African green monkey Vero cells after 24 hrs by MTS assay
# Assay type: cell-based
# test.context: chlorocebus sabaeus
readout.label: CC50 at 24 h (µg/mL)
# output: bare number, implied unit µg/mL

// below: answered compounds
| compound | CC50 at 24 h / µg/mL |
| --- | --- |
| c1ccc2oc(NC(c3ccc(OCc4ccc(OCCN5CCCCC5)cc4)cc3)C3CC3)nc2c1 (centres undefined) | 11.7 |
| c1ccc2sc(SC(c3ccc(OCc4ccc(OCCN5CCCCC5)cc4)cc3)C3CC3)nc2c1 (centres undefined) | 100 |

Moving on to the next compound.
Fill in the blank: the reported CC50 at 24 h of Fc1ccc2nc(NC(c3ccc(OCc4ccc(OCCN5CCCCC5)cc4)cc3)C3CC3)sc2c1 (centres undefined) is ____. 4.93
